# Tested on: MARIMO
# method.description: cell viability relative to vehicle control; higher = less cytotoxic;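 note: after 48 h exposure read by CellTiter-Glo luminescence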
# applied.conditions: 10 µM; SRSF2 genotype: SRSF2 P95H/wt
Where a name gives a salt, the structure may show the parent alone.
Could you please mark Condition met for values of cell viability below 90% and Condition not met for values at or above it?

[[record]]
molecule = "O=C(Cn1cnnn1)N[C@@H]1C(=O)N2C(C(=O)O)=C(CSc3nncs3)CS[C@H]12 [Ceftezole]"
class_assignment = "Condition not met"

[[record]]
molecule = "Cc1ccc(NCCCc2ccccc2)c(N)c1"
class_assignment = "Condition met"

[[record]]
molecule = "COc1cc(C(=O)N(CCCc2ccccc2)Cc2ccc(CC(=O)O)cc2)cc(OC)c1C"
class_assignment = "Condition not met"

[[record]]
molecule = "COc1ccc(CCC(=O)N(c2nccc3ccccc23)[C@@H]2CCCNC2)cc1"
class_assignment = "Condition met"

[[record]]
molecule = "CC(C)(C)NC[C@H](O)COc1nsnc1N1CCOCC1 [Timolol Maleate]"
class_assignment = "Condition not met"

[[record]]
molecule = "CCCn1/c(=N/C(=O)c2cccc(C(N)=O)c2)[nH]c2ccccc21"
class_assignment = "Condition not met"

[[record]]
molecule = "Cc1c(C(=O)Nc2ccc(Oc3ccnc4[nH]cc(-c5ccccc5)c34)c(F)c2)c(=O)n(-c2ccc(F)cc2)n1C"
class_assignment = "Condition met"

[[record]]
molecule = "O=CO [Formate]"
class_assignment = "Condition not met"

[[record]]
molecule = "CNCCCC12CCC(c3ccccc31)c1ccccc12 [Maprotiline hydrochloride]"
class_assignment = "Condition met"

[[record]]
molecule = "CCCCOc1nc(N)c2c(n1)N(Cc1cccc(CN3CCCC3)c1)CC(=O)N2"
class_assignment = "Condition met"

[[record]]
molecule = "CN1C(=O)c2sccc2N(C)c2nc(Nc3ccc(S(N)(=O)=O)cc3)ncc21"
class_assignment = "Condition met"

[[record]]
molecule = "COc1ccc2c(c1)c(C1=C(c3c[nH]c4ccccc34)C(=O)NC1=O)cn2CCCN(C)C"
class_assignment = "Condition met"

[[record]]
molecule = "CC(C)(Cc1ccc2ccccc2c1)NC[C@@H](O)COc1cccc(Cl)c1C#N"
class_assignment = "Condition met"

[[record]]
molecule = "CC(=O)N[C@@H](CS)C(=O)O"
class_assignment = "Condition not met"

[[record]]
molecule = "Nc1nc2n[nH]nc2c(=O)[nH]1"
class_assignment = "Condition met"

[[record]]
molecule = "Cc1c(C(=O)NN2CCCCC2)nn(-c2ccc(Cl)cc2Cl)c1-c1ccc(Cl)cc1"
class_assignment = "Condition not met"

[[record]]
molecule = "C#Cc1cccc(Nc2ncnc3cc(OC)c(OCCCCCCC(=O)NO)cc23)c1"
class_assignment = "Condition met"

[[record]]
molecule = "CNC(=O)[C@H](Cc1c[nH]c2ccccc12)NC(=O)[C@@H](CC(=O)NO)CC(C)C"
class_assignment = "Condition not met"

[[record]]
molecule = "Nc1ccn([C@@H]2CS[C@H](CO)O2)c(=O)n1 [Lamivudine (Epivir)]"
class_assignment = "Condition not met"

[[record]]
molecule = "COC(=O)N[C@H](C(=O)N1CCC[C@H]1c1ncc(-c2ccc(-c3ccc(-c4cnc([C@@H]5CCCN5C(=O)[C@@H](NC(=O)OC)C(C)C)[nH]4)cc3)cc2)[nH]1)C(C)C"
class_assignment = "Condition met"

[[record]]
molecule = "N[C@@H](Cc1cc(I)c(Oc2cc(I)c(O)c(I)c2)c(I)c1)C(=O)O [Levothyroxine sodium]"
class_assignment = "Condition not met"

[[record]]
molecule = "O=C(O)CCCCCCCC(O)C(O)CCCCCCO (stereo unspecified)"
class_assignment = "Condition not met"

[[record]]
molecule = "O=C1OC(COc2ccccc2[N+](=O)[O-])CC1Cc1ccccc1 (stereo unspecified)"
class_assignment = "Condition not met"

[[record]]
molecule = "CNC1CCCN(c2c(F)cc3c(=O)c(C(=O)O)cn(C4CC4)c3c2OC)C1 (stereo unspecified)"
class_assignment = "Condition not met"

[[record]]
molecule = "COc1cc(-c2cn(C)c(=O)c3cnccc23)cc(OC)c1CN(C)C"
class_assignment = "Condition not met"

[[record]]
molecule = "COc1ncc(-c2cc(-c3ncc(CN4C[C@@H](C)O[C@@H](C)C4)o3)c3cn[nH]c3c2)cc1NS(C)(=O)=O"
class_assignment = "Condition met"

[[record]]
molecule = "Cc1cc2c(F)c(Oc3ncnn4cc(OC[C@@H](C)O)c(C)c34)ccc2[nH]1"
class_assignment = "Condition not met"

[[record]]
molecule = "OCCOCCN1CCN(C(c2ccccc2)c2ccc(Cl)cc2)CC1 (stereo unspecified) [Hydroxyzine pamoate]"
class_assignment = "Condition met"

[[record]]
molecule = "CC1(C)S[C@@H]2[C@H](NC(=O)C(c3ccccc3)S(=O)(=O)O)C(=O)N2[C@H]1C(=O)O (stereo partly specified) [Sulbenicillin Sodium]"
class_assignment = "Condition not met"

[[record]]
molecule = "CCCCNc1ncc2c(-c3ccc(CN4CCN(C)CC4)cc3)cn([C@H]3CC[C@H](O)CC3)c2n1"
class_assignment = "Condition met"

[[record]]
molecule = "CN(C)c1ccc(-c2nc3ncc(Cl)c(N4CCN(CC(=O)Nc5nccs5)CC4)c3[nH]2)cc1"
class_assignment = "Condition not met"

[[record]]
molecule = "CC(C)CCn1c(CN2CCN(C(=O)C3CC3)CC2)nc2c1c(=O)n(C)c(=O)n2C"
class_assignment = "Condition not met"

[[record]]
molecule = "O=C1CCc2ccc(OCCCCN3CCN(c4cccc(Cl)c4Cl)CC3)cc2N1"
class_assignment = "Condition met"


====

# Test system: MOLM14
# method.description: cell viability relative to vehicle control; higher = less cytotoxic
# applied.conditions: 10 µM; SRSF2 genotype: SRSF2 P95H/wt
Structures can show the parent of a compound that is named as a salt.
Rule: measured cell viability below 80% gets satisfied; anything equal to or greater than 80% gets not satisfied.

[[record]]
molecule = "C/C=C(/C)C(=O)O[C@H]1c2cc(OC)c(OC)c(OC)c2-c2c(cc3c(c2OC)OCO3)C[C@H](C)[C@]1(C)O"
assay_target = "MOLM14"
class_assignment = "not satisfied"

[[record]]
molecule = "Cc1cccc(Nc2ccncc2S(=O)(=O)NC(=O)NC(C)C)c1 [Torsemide (Demadex)]"
assay_target = "MOLM14"
class_assignment = "not satisfied"

[[record]]
molecule = "COc1cc2c(Oc3ccc4[nH]c(C)cc4c3F)ncnc2cc1OCCCN1CCCC1"
assay_target = "MOLM14"
class_assignment = "satisfied"

[[record]]
molecule = "CCCCCCCCCCCCCCCC(=O)OCC [Ethyl palmitate]"
assay_target = "MOLM14"
class_assignment = "not satisfied"

[[record]]
molecule = "CC1=CC(=O)CC(C)(C)C1=O"
assay_target = "MOLM14"
class_assignment = "not satisfied"

[[record]]
molecule = "CC(ONC(=O)c1cc(C(F)(F)F)cc(C(F)(F)F)c1)C(=O)Nc1ccc(Cl)cc1 (stereo not drawn)"
assay_target = "MOLM14"
class_assignment = "not satisfied"

[[record]]
molecule = "CCC(=O)NS(=O)(=O)c1ccc(-c2c(-c3ccccc3)noc2C)cc1 [Parecoxib]"
assay_target = "MOLM14"
class_assignment = "not satisfied"

[[record]]
molecule = "N[C@@H](CSC(c1ccccc1)(c1ccccc1)c1ccccc1)C(=O)O"
assay_target = "MOLM14"
class_assignment = "satisfied"

[[record]]
molecule = "NS(=O)(=O)c1cc(Cl)c(Cl)c(S(N)(=O)=O)c1 [Dichlorphenamide (Diclofenamide)]"
assay_target = "MOLM14"
class_assignment = "not satisfied"

[[record]]
molecule = "O=C(NO)c1ccc(CC(=O)N(CCO)c2ccccc2)cc1"
assay_target = "MOLM14"
class_assignment = "satisfied"

[[record]]
molecule = "Cc1ncc(CO)c(CO)c1O [Metadoxine]"
assay_target = "MOLM14"
class_assignment = "not satisfied"

[[record]]
molecule = "O=c1cc(-c2ccccc2)oc2cc(O)c(O)c(O)c12"
assay_target = "MOLM14"
class_assignment = "satisfied"

[[record]]
molecule = "CC12CC3CC(C)(C1)CC(N)(C3)C2 [Memantine hydrochloride (Namenda)]"
assay_target = "MOLM14"
class_assignment = "not satisfied"

[[record]]
molecule = "CCOC(=O)O[C@]1(C(=O)OCCl)CC[C@H]2[C@@H]3CCC4=CC(=O)C=C[C@]4(C)[C@H]3[C@@H](O)C[C@@]21C [Loteprednol etabonate]"
assay_target = "MOLM14"
class_assignment = "not satisfied"

[[record]]
molecule = "Cc1cc(C)cc(NC(=O)Cc2ccc(OC(C)(C)C(=O)O)cc2)c1 [Efaproxiral sodium]"
assay_target = "MOLM14"
class_assignment = "not satisfied"

[[record]]
molecule = "COc1ccccc1OCC(O)CN1CCN(CC(=O)Nc2c(C)cccc2C)CC1 (stereo not drawn) [Ranolazine (Ranexa)]"
assay_target = "MOLM14"
class_assignment = "not satisfied"

[[record]]
molecule = "Cc1cc(C)c(Nc2ccnc(Nc3ccc(C#N)cc3)n2)c(C)c1"
assay_target = "MOLM14"
class_assignment = "satisfied"

[[record]]
molecule = "COc1cc2oc(-c3ccc(O)cc3)cc(=O)c2c(O)c1[C@@H]1O[C@H](CO)[C@@H](O)[C@H](O)[C@H]1O[C@@H]1O[C@H](CO)[C@@H](O)[C@H](O)[C@H]1O"
assay_target = "MOLM14"
class_assignment = "not satisfied"

[[record]]
molecule = "Cc1ccc(S(=O)(=O)Nc2nc3ccccc3nc2Nc2ccc3nsnc3c2)cc1"
assay_target = "MOLM14"
class_assignment = "not satisfied"

[[record]]
molecule = "O=C(O[C@@H]1O[C@@H]2COC(=O)c3cc(O)c(O)c(O)c3-c3c(cc(O)c(O)c3O)C(=O)O[C@H]([C@H]1O)[C@@H]2O)c1cc(O)c(O)c(O)c1"
assay_target = "MOLM14"
class_assignment = "not satisfied"

[[record]]
molecule = "Cn1cc(CNCC2CCN(c3ncc(C(=O)NO)cn3)CC2)c2ccccc21"
assay_target = "MOLM14"
class_assignment = "satisfied"

[[record]]
molecule = "C=CC(=O)N1CCC[C@@H](n2nc(-c3ccc(Oc4ccccc4)cc3)c(C(N)=O)c2N)C1"
assay_target = "MOLM14"
class_assignment = "satisfied"

[[record]]
molecule = "CC[C@H]1[C@@H](O)[C@@H]2[C@H](CC[C@]3(C)[C@@H]([C@H](C)CCC(=O)O)CC[C@@H]23)[C@@]2(C)CC[C@@H](O)C[C@@H]12"
assay_target = "MOLM14"
class_assignment = "not satisfied"

[[record]]
molecule = "CCCNC(=O)C1OC1C(=O)NC(C(=O)N1CCCC1C(=O)OC)C(C)CC (stereo not drawn)"
assay_target = "MOLM14"
class_assignment = "satisfied"

[[record]]
molecule = "CS(=O)(=O)c1ccc(-c2cnc(NCc3ccco3)n3cnnc23)cc1"
assay_target = "MOLM14"
class_assignment = "not satisfied"

[[record]]
molecule = "Cc1oc2nc3c(c(NC(=O)CN4CCCC4=O)c2c1C)CCCC3"
assay_target = "MOLM14"
class_assignment = "not satisfied"

[[record]]
molecule = "c1ccc(Cn2c(-c3ccc(OCC(C4CCNCC4)n4c(-c5ccccc5)nc5ccccc54)cc3)nc3ccccc32)cc1 (stereo not drawn)"
assay_target = "MOLM14"
class_assignment = "satisfied"

[[record]]
molecule = "C=C[C@@](C)(/C=C/c1ccc(O)cc1)CCC=C(C)C"
assay_target = "MOLM14"
class_assignment = "not satisfied"

[[record]]
molecule = "Clc1ccc(COC(Cn2ccnc2)c2ccc(Cl)cc2Cl)c(Cl)c1 (stereo not drawn)"
assay_target = "MOLM14"
class_assignment = "satisfied"

[[record]]
molecule = "CN1CCC[C@H]1c1cccnc1 [nicotine ditartrate]"
assay_target = "MOLM14"
class_assignment = "not satisfied"

[[record]]
molecule = "COc1ccc(Cn2ccc3ccc(C(=O)NO)cc32)cc1"
assay_target = "MOLM14"
class_assignment = "not satisfied"

[[record]]
molecule = "CCOc1nc2cccc(C(=O)O)c2n1Cc1ccc(-c2ccccc2-c2noc(=O)[nH]2)cc1"
assay_target = "MOLM14"
class_assignment = "not satisfied"

